- Test system: V. cholerae SAD30
- Construct: SAD30
- Parameters: species or system S. aureus MSSA476 (TSB) or V. cholerae SAD30 (LB); 384-well bacterial growth screen at 25 uM, OD600 relative to DMSO control
- STUDY_CONDITIONS: relative growth, OD600, LB; 25 µM; inhibitor
The whole screen tested about 3,200 compounds, of which about 110 (3.4%) showed an effect of 50% or more. The full list was thinned out, with strong results kept by preference.
// returns FALSE unless % of control remaining is strictly below 80%, in which case TRUE

hey, is % of control remaining for COc1ccccc1CN1C(=O)C=CC1=O [10-P21] lower than 80% or not?
TRUE

hey, is % of control remaining for C=CC(=O)N[C@H]1CCN(S(=O)(=O)c2ccccc2)C1 [3-P11] lower than 80% or not?
FALSE

hey, is % of control remaining for CCN(CC)S(=O)(=O)c1cccc(NC(=O)CCl)c1 [4-M07] lower than 80% or not?
FALSE

hey, is % of control remaining for Cc1cc(C(=O)CCl)c(C)n1-c1cccc(Cl)c1 [10-N18] lower than 80% or not?
FALSE

###

- System: V. cholerae SAD30
- Construct: SAD30
- Set-up: species or system S. aureus MSSA476 (TSB) or V. cholerae SAD30 (LB); 384-well bacterial growth screen at 25 uM, OD600 relative to DMSO control
- STUDY_CONDITIONS: relative growth, OD600, LB; 25 µM; inhibitor
Hit rate of the full screen: of about 3,200 compounds, about 110 (3.4%) showed an effect of 50% or more. This is one part of a sample in which strong results are shown more often than they occur.
// returns n unless % of control remaining is strictly below 90%, in which case y

Please review the following examples before continuing.
> print(dat)
                                   compound  assigned.category
1  CC(Cl)C(=O)N(C)CCOc1ccc(Cl)cc1 (centres unmarked) [6-C12]                  y
2          Cc1cc(F)c(C(=O)CCl)cc1F [10-L19]                  y
3          Cc1cc(C(=O)CCl)c(F)cc1F [10-O03]                  y
4  Cc1ccc(-n2c(C)cc(C(=O)CCl)c2C)cc1F [10-C06]                  n
5  Cc1ccc(-n2c(C)cc(C(=O)CCl)c2C)cc1C [10-B14]                  n
6       Cc1cc(C(=O)CCl)c(C)c(C)c1C [10-I06]                  n
7  CCOc1ccc(-n2c(C)cc(C(=O)CCl)c2C)cc1 [10-K08]                  n

hey, is % of control remaining for C=CC(=O)Nc1cc(CC(C)(C)C)no1 [1-I19] lower than 90% or not?
n

###

- System: V. cholerae SAD30
- Construct: SAD30
- Parameters: species or system S. aureus MSSA476 (TSB) or V. cholerae SAD30 (LB); 384-well bacterial growth screen at 25 uM, OD600 relative to DMSO control
- STUDY_CONDITIONS: relative growth, OD600, LB; 25 µM; inhibitor
Among all 3,200 compounds or so, about 110 (3.4%) showed an effect of 50% or more. Shown is part of a subset that was picked to be rich in strong results.
// returns class 0 unless % of control remaining is strictly below 80%, in which case class 1

Please review the following examples before continuing.
> print(dat)
                                   compound  assigned.category
1               CC(C)(C)c1ccc(CC(=O)CCl)cc1            class 0
2  CC(Cl)C(=O)N1CCN(S(=O)(=O)c2ccccc2)CC1 (stereo not shown)            class 0
3                      Cc1cccc(CC(=O)CCl)c1            class 0
4  COc1ccc(N2C(=O)C=CC2=O)c([N+](=O)[O-])c1            class 1
5               C=CC(=O)Nc1c(OC)nc(Cl)nc1OC            class 1

hey, is % of control remaining for CN(C(=O)CCl)C1CCN(c2ccccc2F)C1=O (stereo not shown) lower than 80% or not?
class 0

###

Assign % of control remaining to each entry below.
- Test system: V. cholerae SAD30
- Construct: SAD30
- Set-up: species or system S. aureus MSSA476 (TSB) or V. cholerae SAD30 (LB); 384-well bacterial growth screen at 25 uM, OD600 relative to DMSO control
- STUDY_CONDITIONS: relative growth, OD600, LB; 25 µM; inhibitor
The whole screen tested about 3,200 compounds, of which about 110 (3.4%) showed an effect of 50% or more. For the sample, strong results were picked, then their nearest neighbours and some compounds at random.
Give bare numbers, in %.

> print(dat)
                                   compound      measured.attribute  recorded.result
1  O=C(CCl)Nc1ccccc1F [4-M16, 2-chloro-N-(2-fluorophenyl)acetamide]  % of control remaining          98.3394
2  COc1ccc(C=C(C#N)C(=O)Nc2c(C)cccc2C)cc1OC  % of control remaining          86.6757
3       C=CC(=O)N1CCC(C(=O)N(C)Cc2ccon2)CC1  % of control remaining          86.7992

Go through the list and state % of control remaining for each entry.
1. O=C1C=CC(=O)N1c1ccc(OC(F)(F)F)cc1
2. Cc1ccc2sc(N(Cc3ccccc3)C(=O)CCl)nc2c1C

1: 30.0799; 2: 100.927

Go through the list and state % of control remaining for each entry.
1. CCCn1c(C)cc(C=C(C#N)C(=O)Nc2ccc3c(c2)OCO3)c1C
2. Cc1cc(C(=O)CCl)c(C)n1-c1ccc(OC(F)(F)F)cc1

88.5792
98.344

Go through the list and state % of control remaining for each entry.
1. O=C(CCl)Nc1c(Cl)cccc1C(F)(F)F
2. Cc1cc(C=C(C#N)C(=O)Nc2nccs2)cc(C)c1O
3. CCC(=O)Nc1ccc(C(=O)CCl)cc1 [10-C03, N-[4-(2-chloroacetyl)phenyl]propanamide]
4. N#CC(=Cc1cccc(Oc2ccccc2)c1)C(=O)N1CCCC1
5. O=C(CCl)Cc1c(Cl)cccc1Cl
6. O=C(CCl)NCCc1c(F)cccc1F
7. O=C1C=CC(=O)N1c1ccc(OC(F)F)cc1
8. O=C(CCl)Nc1nccc(Cl)n1

1. 98.0141
2. 84.7723
3. 111.903
4. 85.724
5. 45.6653
6. 99.5272
7. 36.7816
8. 88.7288

Go through the list and state % of control remaining for each entry.
1. CCn1nc(C)c(CNC(=O)CCl)c1C
2. COC(=O)c1cc(C(=O)CCl)c(C)o1

1: 85.1148; 2: 43.6392

###

Assign % of control remaining to each entry below.
- Test system: V. cholerae SAD30
- Construct: SAD30
- Set-up: species or system S. aureus MSSA476 (TSB) or V. cholerae SAD30 (LB); 384-well bacterial growth screen at 25 uM, OD600 relative to DMSO control
- STUDY_CONDITIONS: relative growth, OD600, LB; 25 µM; inhibitor
Out of some 3,200 compounds screened, about 110 (3.4%) showed an effect of 50% or more. Many of the other results were omitted from the sample, so strong results are more common in it than they were.
Answers are plain numbers, in %.

Go through the list and state % of control remaining for each entry.
1. Cc1cccc(-n2cc(C(=O)CCl)nn2)c1
2. CS(=O)(=O)c1ccc(C(=O)CCl)cc1
3. CC(Cl)C(=O)NCc1csc2ccccc12 (stereo not shown)
4. Cc1nc(C)c(C(=O)CCl)o1
5. C=CC(=O)Nc1cc(NC(=O)c2ccc([N+](=O)[O-])o2)ccc1F
6. CC(C)NC(=O)C(C#N)=Cc1ccccc1
7. COc1ccccc1N1C(=O)C=CC1=O

1. 5.299
2. 0
3. 69.5192
4. 41.4572
5. -0.1875
6. 76.8865
7. 26.0277

###

- Test system: V. cholerae SAD30
- Construct: SAD30
- Parameters: species or system S. aureus MSSA476 (TSB) or V. cholerae SAD30 (LB); 384-well bacterial growth screen at 25 uM, OD600 relative to DMSO control
- STUDY_CONDITIONS: relative growth, OD600, LB; 25 µM; inhibitor
Out of some 3,200 compounds screened, about 110 (3.4%) showed an effect of 50% or more. What follows is part of a selection rich in strong results, with near analogues and random picks from the rest.
// returns n unless % of control remaining is strictly below 80%, in which case y

Please review the following examples before continuing.
> print(dat)
                                   compound             target  assigned.category
1        O=C1C=CC(=O)N1c1ccc(F)cc1 [10-M10]  V. cholerae SAD30                  y
2  CN(c1ccc(C(=O)CCl)cc1)S(C)(=O)=O [10-F19]  V. cholerae SAD30                  y
3  CC(Cl)C(=O)Nc1ccc(SC(F)F)cc1 (stereo not drawn) [4-L09]  V. cholerae SAD30                  n
4  COc1ccccc1CNC(=O)C(C)Cl (stereo not drawn) [5-M21]  V. cholerae SAD30                  n

hey, is % of control remaining for COc1ccc(NC(=O)C(C#N)=Cc2cnc3c(C)cccn23)cc1 [9-L03] lower than 80% or not?
n

hey, is % of control remaining for O=C1C=CC(=O)N1c1ccc(F)c(Cl)c1 [10-D15] lower than 80% or not?
y

hey, is % of control remaining for CC(Cl)C(=O)N1Cc2ccccc2OCC1C (stereo not drawn) [7-F11] lower than 80% or not?
y

hey, is % of control remaining for Cc1cc(C(=O)CCl)c(C)n1-c1ccc(C(F)(F)F)cc1 [10-J14] lower than 80% or not?
n

hey, is % of control remaining for C=CC(=O)NC(C)c1cn(-c2ccccc2)nn1 (stereo not drawn) [1-N04] lower than 80% or not?
n

hey, is % of control remaining for CC(Cl)C(=O)c1ccc(NS(C)(=O)=O)cc1 (stereo not drawn) [10-A08] lower than 80% or not?
n

hey, is % of control remaining for C=CC(=O)N1CCC(C(=O)NCCc2c(C)n[nH]c2C)CC1 [2-D04] lower than 80% or not?
n

hey, is % of control remaining for CS(=O)(=O)Nc1ccc(C(=O)CCl)cc1 [10-D19] lower than 80% or not?
y

hey, is % of control remaining for N#CC(=Cc1ccc(C#N)cc1)C(=O)N1CCCC1 [9-P21] lower than 80% or not?
n
